- Target: T1, full-length human α7 nicotinic acetylcholine receptor (human, UniProt P36544 23-502)
- T1 construct: human α7 nicotinic acetylcholine receptor, UniProtKB P36544 ACHA7_HUMAN, full length; also called α7nAChR; full length α7nAChR; source: E. coli Rosetta 2(DE3) pLysS, purified (NiNTA, SEC)
- T1 sequence (P36544 23-502): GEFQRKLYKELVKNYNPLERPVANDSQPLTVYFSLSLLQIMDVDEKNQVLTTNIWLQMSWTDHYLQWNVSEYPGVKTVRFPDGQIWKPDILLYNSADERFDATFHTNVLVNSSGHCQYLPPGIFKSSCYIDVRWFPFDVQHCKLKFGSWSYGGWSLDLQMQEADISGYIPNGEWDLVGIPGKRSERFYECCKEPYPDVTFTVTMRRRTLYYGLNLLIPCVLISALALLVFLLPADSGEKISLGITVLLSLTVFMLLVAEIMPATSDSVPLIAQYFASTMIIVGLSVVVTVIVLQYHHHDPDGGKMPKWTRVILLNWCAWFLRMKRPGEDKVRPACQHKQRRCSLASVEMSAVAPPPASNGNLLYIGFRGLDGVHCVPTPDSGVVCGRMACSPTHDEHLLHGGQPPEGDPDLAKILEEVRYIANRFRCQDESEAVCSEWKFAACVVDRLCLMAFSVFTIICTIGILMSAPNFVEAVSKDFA
- Assay Details: SPR; steady state; α7nAChR immobilised on an NTA sensor chip (1000-2000 RU), PICK1 PDZ domain flowed at 30 μl/min, 25 °C, Biacore 3000; receptor in 0.05% DDM; apparent dissociation constants, Langmuir isotherm, n=3
- Experimental Parameters: both partners purified
pKd: −log10 of the molar value.
Attribute Measured: pKd

>>> recorded_value("PDZ domain of the intracellular scaffold protein PICK1 (domain or fragment, UniProt Q9NRD5 22-105, looked up, PICK1, PDZ domain; also called PICK1 PDZ domain) KVTLQKDAQNLIGISIGGGAQYCPCLYIVQVFDNTPAALDGTVAAGDEITGVNGRSIKGKTKVEVAKMIQEVKGEVTIHYNKLQ")
5.48
